- Tested on: BDF1 mice, B16 melanoma ip, median survival T/C
- test: NCI In Vivo Anticancer Drug Screen. Data for tumor model B16 Melanoma (intraperitoneal) in B6D2F1 (BDF1) mice
- test.parameters: endpoint: median survival time; dose: 100.0 mg/kg/injection; schedule: Q01DX009 (ip); vehicle: other; higher = longer survival
Toxic doses and inconclusive results are not listed.
measured.quantity: T/C

The compound identified as COc1cc(C(O)C(Cl)(Cl)Cl)ccc1O (centres undefined) registered its T/C at 94 % of control

Briefly, T/C measured for Cc1ccc(S(=O)(=O)N/N=C/c2ccccc2)cc1 : 110 % of control

T/C reading for CC(C)CCC[C@@H](C)[C@H]1CC[C@H]2[C@@H]3CC=C4C[C@@H](O)CC[C@]4(C)[C@H]3CC[C@]12C : 98 % of control

Entry CCCCCCCCCCCCCC(=O)CCC ; T/C = 88 % of control

Entry source: PubChem BioAssay AID192
